target: UniProtKB P00749; test: Relative binding affinity for urokinase-type plasminogen activator
quantity.name: Selectivity
Answer with the value's number alone.

Exam item: Field request: Selectivity | item: N=C(N)c1ccc2[nH]c(-c3cc(CCC(=O)O)cc(-c4cccc([N+](=O)[O-])c4)c3O)cc2c1
Marked response: 6

Exam item: Cool, now N=C(N)c1ccc2[nH]c(-c3cc(CC(=O)O)cc(-c4cccc(N)c4)c3O)cc2c1
Marked response: 6

Exam item: Cool, now N=C(N)c1ccc2[nH]c(-c3cc(CC(=O)O)cc(-c4cccc(C(=O)O)c4)c3O)cc2c1
Marked response: 6
